# System: Dual specificity protein kinase CLK1 (Homo sapiens)
# Sequence (P49759 whole entry): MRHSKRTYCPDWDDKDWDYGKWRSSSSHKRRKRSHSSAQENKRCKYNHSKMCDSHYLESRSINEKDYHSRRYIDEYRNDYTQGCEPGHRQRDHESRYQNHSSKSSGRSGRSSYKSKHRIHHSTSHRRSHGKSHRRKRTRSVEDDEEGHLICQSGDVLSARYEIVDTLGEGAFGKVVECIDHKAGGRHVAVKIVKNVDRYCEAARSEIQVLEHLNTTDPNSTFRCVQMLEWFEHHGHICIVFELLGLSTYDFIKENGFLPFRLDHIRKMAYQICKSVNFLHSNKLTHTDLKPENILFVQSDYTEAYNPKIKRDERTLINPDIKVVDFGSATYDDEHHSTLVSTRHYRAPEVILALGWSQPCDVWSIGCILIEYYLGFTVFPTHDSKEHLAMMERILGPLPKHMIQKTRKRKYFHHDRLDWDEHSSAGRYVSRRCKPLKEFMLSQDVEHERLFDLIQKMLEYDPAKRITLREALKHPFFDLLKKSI
Quantity Name: Kd

Examples with their reported Kd follow.
CCN1CCN(Cc2ccc(Nc3ncc(F)c(-c4cc(F)c5nc(C)n(C(C)C)c5c4)n3)nc2)CC1 = 0.851 nM
COc1cc(N2CCN(C)CC2)ccc1Nc1nccc(-c2cn(C)c3cnccc23)n1 = 7.35 nM
CC(C)CN1CCC(C(=O)Nc2cc3cc(-c4cnn(C)c4)ccc3cn2)CC1 = 0.968 nM
O=C(Nc1ccc2[nH]ncc2c1)c1csc(Nc2ccccc2)n1 = 200 nM
CN1C(=O)/C(=C/c2ccc3c(c2)OCO3)N=C1N = 36.9 nM
COc1cc(/C=C/C(=O)CC(=O)/C=C/c2ccc(O)c(OC)c2)ccc1O = > 1000 nM
CCN1/C(=C/C(C)=O)Sc2ccc(O)cc21 = 1.27 nM
COC1=CC2C(=O)NC3=Cc4ccc(OC)cc4C(=C1OC)C32 (stereo not given) = 0.58 nM

Checklist item: Kd tested on Dual specificity protein kinase CLK1 (Homo sapiens), entry "O=c1c2c(O)cc(O)cc2oc2c(O)ccc(O)c12" , value? 29.7 nM

Checklist item: Kd tested on Dual specificity protein kinase CLK1 (Homo sapiens), entry "O=C(O)c1nc2ccccc2c2[nH]c3c(I)cccc3c12" , value? 6.22 nM

* * *

# System: Glycogen synthase kinase-3 beta (Homo sapiens, UniProt P49841)
# Sequence (P49841 whole entry): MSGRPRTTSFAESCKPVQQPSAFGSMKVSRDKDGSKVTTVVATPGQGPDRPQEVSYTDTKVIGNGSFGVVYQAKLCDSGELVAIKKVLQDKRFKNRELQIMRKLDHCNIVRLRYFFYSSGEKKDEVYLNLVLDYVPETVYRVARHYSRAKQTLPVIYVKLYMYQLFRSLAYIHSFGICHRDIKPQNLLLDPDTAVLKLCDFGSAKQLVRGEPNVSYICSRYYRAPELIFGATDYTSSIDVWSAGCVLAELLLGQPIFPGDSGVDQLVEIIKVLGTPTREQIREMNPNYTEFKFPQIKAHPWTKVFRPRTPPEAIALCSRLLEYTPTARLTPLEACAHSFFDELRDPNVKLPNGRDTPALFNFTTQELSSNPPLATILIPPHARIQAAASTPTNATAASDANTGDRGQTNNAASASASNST
# Protocol Notes: biochemical
Quantity Name: IC50 (µM)
Output spec: scalar in µM, unitless text.

Examples with their reported IC50 follow.
COC1=CC2C(=O)NC3=Cc4ccc(OC)cc4C(=C1OC)C32 (stereo not given) = 2.2
O=C1NC(NC23CC4CC(CC(C4)C2)C3)=N/C1=C\c1ccc2ncsc2c1 = 4.16
Cc1ccc([N+](=O)[O-])cc1S(=O)(=O)N(C)/N=C/c1cnc2ccc(Br)cn12 = 0.0176

Kindly review the next molecule as well.
Query: IC50; subject: "CN1Cc2nn(C)c(C#N)c2-c2cnc3[nH]c(F)c(c3c2)-c2cn(nc2C(F)(F)F)CCCC1=O" 3.39

* * *

# Protocol Notes: in vitro
# Measurement Parameters: mouse, ht-22
The compounds listed here are annotated with their IC50 at 48 h.
Output spec: scalar in µM, unitless text.

Examples with their reported IC50 at 48 h follow.
CN1CCN(C(=O)C(C)(C)c2ccc(C(=O)Cc3cn4cc(-c5ccncc5)ccc4n3)cc2)CC1 = 7.9
O=c1c2c(O)cc(O)cc2oc2c(O)ccc(O)c12 = 2.5

Query: IC50 at 48 h; subject: "COc1ccc2nc3c(CO)cc(OC)cc3c(SC[C@H]3CCNC3)c2c1" 14.7

Query: IC50 at 48 h; subject: "CCNc1cc(Nc2ccc(C(=O)N3CCC(N4CCOCC4)CC3)cc2OC)nc2[nH]cc(C(F)(F)F)c12" 19.9

* * *

# System: Glycogen synthase kinase-3 beta (Homo sapiens, UniProt P49841)
# Protocol Notes: biochemical
The compounds listed here are annotated with their IC50.

Examples with their reported IC50 follow.
O=C(O[C@@H]1Cc2c(O)cc(O)cc2O[C@@H]1c1cc(O)c(O)c(O)c1)c1cc(O)c(O)c(O)c1 [EPIGALOCATECHIN GALLATE] = 6.27 µM
Cc1cccc(N(C)c2nccc(-c3cnn4ncccc34)n2)c1 = > 10 µM
COc1cc(/C=C/C(=O)CC(=O)/C=C/c2ccc(O)c(OC)c2)ccc1O = > 10 µM
CN1CCN(C(=O)C(C)(C)c2ccc(C(=O)Cc3cn4cc(-c5ccncc5)ccc4n3)cc2)CC1 = > 10 µM
Oc1ccc(-c2n[nH]c3ncc(-c4ccc(O)c(O)c4)cc23)cc1 = 0.159 µM
CC(=O)c1nccc2c1[nH]c1ccccc12 = > 10 µM

Kindly review the next compound as well.
Query: IC50; subject: "O=C1NC(Nc2ccccc2)=N/C1=C\c1ccc2c(c1)OCO2" > 10 µM
